# Test system: A-549
# assay-comment: SRB colorimetric assay of cell growth and viability, A-549
# Format: cell-based, human
# assay-context: 48 hours exposure, SRB; read-out: LC50 A-549
experimental-readout: CC50 (nM)
Hi! Could you send only the number? It should be in nM, unit omitted.

// recorded CC50 for C/C=C1\NC(=O)[C@H](Cc2ccc(I)cc2)NC(=O)[C@@H](C(C)C)NC(=O)[C@@H]([C@@H](C)CC)NC(=O)[C@H](NC(=O)[C@H](NC(=O)[C@H](CCCN)NC(=O)[C@H]2CCCN2C(=O)[C@H](NC(=O)[C@@H](NC(=O)[C@@H](NC(=O)[C@H](NC(=O)CC[C@@H](C)CC)C(C)C)[C@@H](C)O)C(C)C)C(C)C)[C@@H](C)CC)[C@@H](C)OC(=O)[C@H](C(C)C)NC1=O [Compound 72, [Phe(4-I)^3, (4S)-MeHex^14]-KF] : 559

---

Below is a list of entries, each paired with its recorded GI50 value.
# Tested on: IGROV-ET
# assay-comment: SRB colorimetric assay of cell growth and viability, IGROV-ET
# Type: cell-based, human
# assay-context: 48 hours exposure
Where a SMILES comes first, the peptide text is derived from it. Bridges are numbered along the chain shown (N, C = ends). [ ]: non-standard residue; d: D form. The star is where a group is joined. d(aIle) = CC[C@H](C)[C@@H](N)C(=O)O; d(aThr) = C[C@@H](O)[C@@H](N)C(=O)O; Hexanoyl(5-Me) = CC(C)CCCC(=O)*; Orn = NCCC[C@H](N)C(=O)O; Dhb = C/C=C(\N)C(=O)O
Hi! Could you send only the number? It should be in nM, unit omitted.

Worked cases, GI50 given:
- C/C=C1\NC(=O)[C@H](Cc2ccccc2)NC(=O)[C@@H](C(C)C)NC(=O)[C@@H]([C@@H](C)CC)NC(=O)[C@H](NC(=O)[C@H](NC(=O)[C@H](CCCN)NC(=O)[C@H]2CCCN2C(=O)[C@H](NC(=O)[C@H](CCCN)NC(=O)[C@@H](NC(=O)[C@H](NC(=O)CCCC(C)C)C(C)C)[C@@H](C)O)C(C)C)[C@@H](C)CC)[C@@H](C)OC(=O)[C@H](C(C)C)NC1=O [Compound 49, [Orn^11]-KF] ({Hexanoyl(5-Me)}-[dV]T[Orn][dV][dP][Orn][d(aIle)][d(aThr)][d(aIle)][dV]F[Dhb]V; ester 8-C): 1910
- C/C=C1\NC(=O)[C@H](Cc2ccccc2)NC(=O)[C@@H](C(C)C)NC(=O)[C@@H]([C@@H](C)CC)NC(=O)[C@H](NC(=O)[C@H](NC(=O)[C@H](CCCN)NC(=O)[C@H]2CCCN2C(=O)[C@H](NC(=O)[C@@H](NC(=O)[C@H](C)NC(=O)CCCC(C)C)C(C)C)C(C)C)[C@@H](C)CC)[C@@H](C)OC(=O)[C@H](C(C)C)NC1=O [Compound 52, [Ala^12, noD-Val^13]-KF] ({Hexanoyl(5-Me)}-AV[dV][dP][Orn][d(aIle)][d(aThr)][d(aIle)][dV]F[Dhb]V; ester 7-C): 3670
- C/C=C1\NC(=O)[C@H](Cc2ccccc2)NC(=O)[C@@H](C(C)C)NC(=O)[C@@H]([C@@H](C)CC)NC(=O)[C@H](NC(=O)[C@H](NC(=O)[C@H](CCC(=O)O)NC(=O)[C@H]2CCCN2C(=O)[C@H](NC(=O)[C@@H](NC(=O)[C@@H](NC(=O)[C@H](NC(=O)CCCC(C)C)C(C)C)[C@@H](C)O)C(C)C)C(C)C)[C@@H](C)CC)[C@@H](C)OC(=O)[C@H](C(C)C)NC1=O [Compound 4, [Glu^8]-KF] ({Hexanoyl(5-Me)}-[dV]TV[dV][dP]E[d(aIle)][d(aThr)][d(aIle)][dV]F[Dhb]V; ester 8-C): 817

# evaluate next
// recorded GI50 for C/C=C1\NC(=O)[C@H](Cc2ccccc2)NC(=O)[C@@H](C(C)C)NC(=O)[C@@H]([C@@H](C)CC)NC(=O)[C@H](NC(=O)[C@H](NC(=O)[C@H](CCCN)NC(=O)[C@H]2CCCN2C(=O)[C@H](NC(=O)[C@@H](NC(=O)[C@@H](NC(=O)[C@H](NC(=O)CCCCCCCCCC)C(C)C)[C@@H](C)O)C(C)C)C(C)C)[C@@H](C)CC)[C@@H](C)OC(=O)[C@H](C(C)C)NC1=O [Compound 15, [Und^14]-KF] : 235

---

# System: LNCaP
# assay-comment: SRB colorimetric assay of cell growth and viability, LNCaP
# Assay type: cell-based, human
# assay-context: 48 hours exposure; read-out: LC50 LN-caP
Where a SMILES comes first, the peptide text is derived from it. Bridges are numbered along the chain shown (N, C = ends). [ ]: non-standard residue; d: D form. The star is where a group is joined. d(aIle) = CC[C@H](C)[C@@H](N)C(=O)O; d(aThr) = C[C@@H](O)[C@@H](N)C(=O)O; Hexanoyl(5-Me) = CC(C)CCCC(=O)*; Orn = NCCC[C@H](N)C(=O)O; Dhb = C/C=C(\N)C(=O)O
experimental-readout: CC50

• CC[C@H](C)[C@@H](NC(=O)[C@H](CCCN)NC(=O)[C@H]1CCCN1C(=O)[C@H](NC(=O)[C@@H](NC(=O)[C@@H](NC(=O)[C@H](NC(=O)CCCC(C)C)C(C)C)[C@@H](C)O)C(C)C)C(C)C)C(=O)N[C@H]1C(=O)N[C@H]([C@@H](C)CC)C(=O)N[C@H](C(C)C)C(=O)N[C@@H](Cc2ccccc2)C(=O)NCC(=O)N[C@@H](C(C)C)C(=O)O[C@@H]1C [Compound 65, [Gly^2]-KF] ({Hexanoyl(5-Me)}-[dV]TV[dV][dP][Orn][d(aIle)][d(aThr)][d(aIle)][dV]FGV; ester 8-C) = ≥ 6.89 µM

# evaluate next
// recorded CC50 for C/C=C1\NC(=O)[C@H](Cc2ccccc2)NC(=O)[C@@H](C(C)C)NC(=O)[C@@H]([C@@H](C)CC)NC(=O)[C@H](NC(=O)[C@H](NC(=O)[C@H](CCCN)NC(=O)[C@H]2CCCN2C(=O)[C@H](NC(=O)[C@H](CCC(=O)O)NC(=O)[C@@H](NC(=O)[C@H](NC(=O)CCCC(C)C)C(C)C)[C@@H](C)O)C(C)C)[C@@H](C)CC)[C@@H](C)OC(=O)[C@H](C(C)C)NC1=O [Compound 51, [Glu^11]-KF] ({Hexanoyl(5-Me)}-[dV]TE[dV][dP][Orn][d(aIle)][d(aThr)][d(aIle)][dV]F[Dhb]V; ester 8-C) : 6.63 µM

---

# Tested on: LoVo
# assay-comment: SRB colorimetric assay of cell growth and viability, LoVo
# Format: cell-based, human
# assay-context: LOVO; 48 hours exposure
experimental-readout: GI50 (nM)
Hi! Could you send only the number? It should be in nM, unit omitted.

// recorded GI50 for [2H]C([2H])([2H])C([2H])(C([2H])([2H])[2H])[C@]([2H])(NC(=O)[C@@H](NC(=O)[C@H](NC(=O)CCCC(C)C)C(C)C)[C@@H](C)O)C(=O)N[C@@H](C(=O)N1CCC[C@@H]1C(=O)N[C@@H](CCCN)C(=O)N[C@@H](C(=O)N[C@H]1C(=O)N[C@H]([C@@H](C)CC)C(=O)N[C@H](C(C)C)C(=O)N[C@@H](Cc2ccccc2)C(=O)N/C(=C\C)C(=O)N[C@@H](C(C)C)C(=O)O[C@@H]1C)[C@@H](C)CC)C(C)C [Compound 100, [L-Val-d8^11]-KF] : 181

---

Below is a list of entries, each paired with its recorded GI50 value.
# Tested on: PANC-1
# assay-comment: SRB colorimetric assay of cell growth and viability, PANC-1
# Assay type: cell-based, human
# assay-context: 48 hours exposure
Where a SMILES comes first, the peptide text is derived from it. Bridges are numbered along the chain shown (N, C = ends). [ ]: non-standard residue; d: D form. The star is where a group is joined. d(aIle) = CC[C@H](C)[C@@H](N)C(=O)O; d(aThr) = C[C@@H](O)[C@@H](N)C(=O)O; Hexanoyl(5-Me) = CC(C)CCCC(=O)*; dCha = N[C@H](CC1CCCCC1)C(=O)O; Orn = NCCC[C@H](N)C(=O)O; Dhb = C/C=C(\N)C(=O)O
Hi! Could you send only the number? It should be in nM, unit omitted.

Worked cases, GI50 given:
* C/C=C1\NC(=O)[C@H](Cc2ccccc2)NC(=O)[C@@H](C(C)C)NC(=O)[C@@H]([C@@H](C)CC)NC(=O)[C@H](NC(=O)[C@H](NC(=O)[C@H](CCCN)NC(=O)[C@H]2CCCN2C(=O)[C@H](NC(=O)[C@@H](NC(=O)[C@@H](NC(=O)[C@H](NC(=O)CCCC(C)C)C(C)C)[C@@H](C)O)C(C)C)C(C)C)[C@@H](C)CC)COC(=O)[C@H](C(C)C)NC1=O [Compound 3, [D-Ser^6]-KF] ({Hexanoyl(5-Me)}-[dV]TV[dV][dP][Orn][d(aIle)][dS][d(aIle)][dV]F[Dhb]V; ester 8-C) | 3080
* C/C=C1\NC(=O)[C@H](Cc2ccccc2)NC(=O)[C@@H](CC2CCCCC2)NC(=O)[C@@H](CC2CCCCC2)NC(=O)[C@H](NC(=O)[C@@H](CC2CCCCC2)NC(=O)[C@H](CCCN)NC(=O)[C@H]2CCCN2C(=O)[C@H](NC(=O)[C@@H](NC(=O)[C@@H](NC(=O)[C@H](NC(=O)CCCC(C)C)C(C)C)[C@@H](C)O)C(C)C)C(C)C)[C@@H](C)OC(=O)[C@H](C(C)C)NC1=O [Compound 11, [D-Cha^4, D-Cha^5, D-Cha^7]-KF] ({Hexanoyl(5-Me)}-[dV]TV[dV][dP][Orn][dCha][d(aThr)][dCha][dCha]F[Dhb]V; ester 8-C) | 1430

# evaluate next
// recorded GI50 for C/C=C1\NC(=O)[C@H](Cc2ccccc2)NC(=O)[C@@H](C(C)C)NC(=O)[C@@H]([C@@H](C)CC)NC(=O)[C@H](NC(=O)[C@H](NC(=O)[C@H](CCCN)NC(=O)[C@H]2CCCN2C(=O)[C@H](NC(=O)CCCC(C)C)C(C)C)[C@@H](C)CC)[C@@H](C)OC(=O)[C@H](C(C)C)NC1=O [Compound 31, [noVal^11, noThr^12, noD-Val^13]-KF] ({Hexanoyl(5-Me)}-[dV][dP][Orn][d(aIle)][d(aThr)][d(aIle)][dV]F[Dhb]V; ester 5-C) : 2120
